Tested on: P388 leukemia ip, CD2F1 mice, survival T/C
Assay: NCI In Vivo Anticancer Drug Screen. Data for tumor model P388 Leukemia (intraperitoneal) in CD2F1 (CDF1) mice
Details: endpoint: median survival time; dose: 100.0 mg/kg/injection; schedule: Q01DX005 (ip); vehicle: saline with Tween-80; higher = longer survival
Description: The antitumor activity of compounds was measured in mice bearing transplantable tumors. Survival or tumor size were measured and the results are expressed as the measurement made in the treated group (T) divided by the measurement made in the vehicle treated control group (C). The tumor model used in this assay is P388 Leukemia (intraperitoneal) in CD2F1 (CDF1) mice
Inconclusive results and toxic doses are left out.
observable: T/C

Examples with their reported T/C follow.
CC(C)N(C(=O)c1ncccc1C(=O)c1ccccn1)C(C)C = 94 % of control
Cc1ccc2nc3c(nc2c1)n(-c1ccccc1)c(=O)n3-c1cccc(Cl)c1 = 100 % of control

Reported T/C, compound COCCN(CCOC)C(C(=O)Cc1ccccc1)c1ccccc1 (configuration not stated) : ____
101 % of control

Follow-up item: CCB1OCC(C2OC(O)C3OB(CC)OC32)O1 (configuration not stated)
96 % of control

Also O=C1OC(c2ccccc2)(c2ccccc2)CC1CC(O)(c1ccccc1)c1ccccc1 (configuration not stated) , if possible.
90 % of control

Now consider `COc1ccc(/C=C/C(C)=N/NC(N)=S)cc1OC` .
93 % of control

Also need `O=C1CN(c2ccccc2)C(=O)CN1/N=C/c1ccco1` , thanks.
98 % of control
